- Study Target: Tyrosyl-tRNA synthetase, putative (Trypanosoma cruzi (strain CL Brener)) (UniProt Q4DSP6)
- Sequence (Q4DSP6 as listed by the source): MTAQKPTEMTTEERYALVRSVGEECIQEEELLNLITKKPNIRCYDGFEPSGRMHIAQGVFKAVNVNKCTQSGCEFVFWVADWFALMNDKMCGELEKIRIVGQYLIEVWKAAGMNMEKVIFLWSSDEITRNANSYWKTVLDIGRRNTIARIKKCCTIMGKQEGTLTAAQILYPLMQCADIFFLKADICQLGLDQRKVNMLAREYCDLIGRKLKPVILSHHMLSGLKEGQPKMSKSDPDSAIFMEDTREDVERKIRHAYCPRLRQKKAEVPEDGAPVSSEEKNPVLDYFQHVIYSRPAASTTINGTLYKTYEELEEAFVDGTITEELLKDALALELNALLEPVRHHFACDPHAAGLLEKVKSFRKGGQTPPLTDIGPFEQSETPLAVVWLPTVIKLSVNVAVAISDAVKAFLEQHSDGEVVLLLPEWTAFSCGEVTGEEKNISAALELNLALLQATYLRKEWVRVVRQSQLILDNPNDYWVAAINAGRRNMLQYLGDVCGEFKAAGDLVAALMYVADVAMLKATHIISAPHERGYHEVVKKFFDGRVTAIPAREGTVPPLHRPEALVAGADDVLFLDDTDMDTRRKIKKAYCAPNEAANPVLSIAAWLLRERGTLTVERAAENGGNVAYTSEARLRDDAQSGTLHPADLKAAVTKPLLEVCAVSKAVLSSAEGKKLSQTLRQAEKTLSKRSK
- Experimental Protocol: Trypanosoma cruzi tyrosyl tRNA synthetase (TcYRS) SOP
- Assay type: functional
- Design: scale not given: direction of the effect not stated beside the values
- Experimental Context: 30 µM
Values of Percent Effect greater than or equal to 10% map to label 1; values below map to label 0.

Compound	Group
Cc1n[nH]c(C2CN(C(=O)c3ccco3)CCO2)n1 (stereo not given)	label 0
CCc1cc(NCC(O)CN2CCCCC2)n2ncnc2n1 (stereo not given)	label 1
CCOc1ccc(CC(=O)N2CCN(c3nccn3C)CC2)cc1	label 1

// next entry
In plain terms: is recorded Percent Effect at least 10% for c1coc(CN2C[C@H](OCC3CCOCC3)[C@H]3COC[C@H]32)c1 ?
label 1

* * *

# maps each entry to its Percent Effect
- Study Target: Tyrosyl-tRNA synthetase, putative (Trypanosoma cruzi (strain CL Brener)) (UniProt Q4DSP6)
- Experimental Protocol: Trypanosoma cruzi tyrosyl tRNA synthetase (TcYRS) _High Tyrosine SOP; note: in the data most compounds retested in dose-response had high values
- Type: functional
- Parameters: scale not given: direction of the effect not stated beside the values
- Experimental Context: 30 µM
Give the number; % is assumed, so skip it.

Here's what some known entries look like.
Compound	Unit Of Measure	Observed
Cc1nn(C)c(C)c1CNC1CCOc2ccccc21 (stereo not given)	%	0
Cn1ccnc1-c1cccc(NC(=O)NCCCO)c1	%	5.26
Cc1cc(C)n(CC(=O)N2CCC(NS(C)(=O)=O)CC2)n1	%	5.39
CN1CCCN(C(=O)NCc2csc(Br)c2)CC1	%	6.93
O=C(CN1CCCC1Cn1cncn1)NCCOc1cccc(F)c1 (stereo not given)	%	0.493

// lookup Percent Effect for CC(=O)N1CCN(c2cc(-c3ccccc3)nc3c(C)c(C)nn23)CC1
7.29

// lookup Percent Effect for Cc1noc2nc(C3CCN(Cc4cccnc4)CC3)cc(C(F)F)c12
2.15

// lookup Percent Effect for Cn1cc(C(=O)Nc2ccc3c(c2)CN(C(=O)c2ccco2)CC3)nn1
4.23

// lookup Percent Effect for O=C([C@H]1CCCO1)N1CCc2ncnc(NC3CC3)c2CC1
9.9

// lookup Percent Effect for Cc1cc(NC(=O)CN2CCn3c(nnc3C3CC3)C2)n(C)n1
-0.49

// lookup Percent Effect for Cc1cc(C)n(C2CN(CC(O)c3ccc(F)cc3)C2)n1 (stereo not given)
6.8

// lookup Percent Effect for CC(C)Oc1cc(N2CCC(N3CCC(O)CC3)CC2)nc(N)n1
8.99

// lookup Percent Effect for CCN(CC)c1ccc(NS(=O)(=O)c2cnn(C)c2)cn1
6.25

// lookup Percent Effect for CNc1oc(-c2cc(S(=O)(=O)N3CCCCCC3)c(C)o2)nc1C#N
1.06

// lookup Percent Effect for CS(=O)(=O)NCC(=O)NC1CCc2nccn2C1 (stereo not given)
4.92

* * *

- Test system: Trypanosoma cruzi
- Experimental Protocol: Trypanosoma cruzi phosphomannomutase and mannose-1-phosphate guanylyltransferase assay
- Type: functional
- Design: scale not given: direction of the effect not stated beside the values
- Experimental Context: 10 µM
# maps each entry to its Percent Effect
Give the number; % is assumed, so skip it.

Molecule	Percent Effect / %
COc1ccc2c(c1)CCN(CCC(=O)O)CC2	1.74
CC(=O)N1CCN(c2cc(-c3ccccc3)nc3c(C)c(C)nn23)CC1	4.96
Cc1nn(CC(C)C)c(N(C)C)c1CNCc1cc2ccccc2[nH]1	-2.17
CS(=O)(=O)N1CCOCC2(CN(Cc3ccsc3)CCO2)C1 (configuration not stated)	7.14

// lookup Percent Effect for CC(C)Cc1cc(C(=O)NCCc2ccc(S(C)(=O)=O)cc2)[nH]n1
3.8

// lookup Percent Effect for CN(CC(=O)NC1(C#N)CCCC1)C1CCCN(c2cccnn2)C1 (configuration not stated)
8.12

// lookup Percent Effect for c1csc(-c2noc(CCCN3CCCC3Cn3cccn3)n2)c1 (configuration not stated)
0.849

// lookup Percent Effect for CCC(=O)NCc1cc(Br)c(OC)c(OC)c1
4.19

// lookup Percent Effect for COc1cc(CNC(=O)CNc2cc(Cl)ccc2OC)ccn1
-2.55

// lookup Percent Effect for COc1ccccc1OCCC(=O)N1CCCC1Cn1cc(C)cn1 (configuration not stated)
1.86

// lookup Percent Effect for CC(C)S(=O)(=O)NCC1CCCN(C(=O)c2cccnc2)C1 (configuration not stated)
-3.53

// lookup Percent Effect for O=C1[C@H]2CC[C@H](CN(S(=O)(=O)c3ccccc3)C2)N1Cc1cscn1
-1.59

// lookup Percent Effect for c1ccc2c(N3CCCC3Cn3cccn3)ncnc2c1 (configuration not stated)
2.88
